system: Pseudotyped HCV GT1b particles (HCVpp), entry into Huh7-high CD81 cells; experiment: microbe, parasite or virus in culture; format: cell-based, HCV GT1b Con1 strain; settings: Hepatitis C virus, GT1B, 72 h, read-out: HCVpp GT-1b (EC50, μM)
Counter-ions that a name gives are not always drawn.
Assay Readout: log10 EC50 (log10 of the value in µM)
// units: µM (pre-log); metric: EC50; scale: log10

Compound	log10 EC50
Nc1nc(Nc2cc(Cl)c(-c3ccc(Cl)cc3)c(Cl)c2)n[nH]1	-0.03

Batch: log10 EC50 for all items listed.
1. COc1cc(-c2c(Cl)cc(Nc3n[nH]c(N)n3)cc2C(F)(F)F)ccc1S(=O)(=O)N[C@H]1CC[C@H](O)CC1
2. Nc1nc(Nc2cc(Cl)c(-c3ccc(NC(=O)C4CCC(F)(F)CC4)cc3)c(C(F)(F)F)c2)n[nH]1
3. CS(=O)(=O)c1cccc(-c2c(F)cc(Nc3nc(N)n[nH]3)cc2F)c1
4. CC(C)(C)OC(=O)[C@@H]1CCCN1S(=O)(=O)c1ccc(-c2c(Cl)cc(Nc3n[nH]c(N)n3)cc2C(F)(F)F)cc1
5. CC(C)(C)OC(=O)N1CCC(CS(=O)(=O)c2ccc(-c3c(Cl)cc(Nc4n[nH]c(N)n4)cc3C(F)(F)F)cc2)CC1
6. Nc1nc(Nc2cc(Cl)c(-c3ccc(S(=O)(=O)CC4CCCNC4)cc3)c(C(F)(F)F)c2)n[nH]1 (stereo not shown) [Compound 25, hydrochloride]

A)
1: -2.05; 2: -1.92; 3: -0.54; 4: -2.30; 5: -1.77; 6: -1.23

* * *

tested on: Pseudotyped HCV GT1a particles (HCVpp), entry into Huh7-high CD81 cells; test: microbe, parasite or virus in culture; format: cell-based, HCV GT1a H77 strain; conditions: Hepatitis C virus, 72 h, read-out: HCVpp GT-1a (EC50, μM)
Assign EC50 to each entry below.
Answers are plain numbers, in µM.

Here is how some compounds turned out for EC50.
Compound	U	EC50
COc1ccc(-c2c(Cl)cc(Nc3n[nH]c(N)n3)cc2C(F)(F)F)cc1S(=O)(=O)N1CCN(C(=O)OC(C)(C)C)CC1	µM	0.003
CC(=O)c1ccc(-c2c(Cl)cc(Nc3n[nH]c(N)n3)cc2Cl)cc1	µM	0.008

// each compound listed below needs its EC50
1. CN(C)S(=O)(=O)c1ccc(-c2c(Cl)cc(Nc3n[nH]c(N)n3)cc2Cl)cc1
2. N#CCCCOc1ccc(-c2c(Cl)cc(Nc3n[nH]c(N)n3)cc2Cl)cc1

A)
[0.002, 0.008]

* * *

system: Pseudotyped HCV GT1b particles (HCVpp), entry into Huh7-high CD81 cells; test: microbe, parasite or virus in culture; assay type: cell-based, HCV GT1b Con1 strain; conditions: Hepatitis C virus, GT1B, 72 h, read-out: HCVpp GT-1b (EC50, μM)
Where a name gives a salt, the structure may show the parent alone.
Assay Readout: EC50 (µM)
Numbers only, in µM.

Compound	Study Target	Test Result
Nc1nc(Nc2cc(Cl)c(-c3ccc(OC4CCN(CCC(F)(F)F)CC4)cc3)c(C(F)(F)F)c2)n[nH]1 [Compound 140, hydrochloride]	Pseudotyped HCV GT1b particles (HCVpp), entry into Huh7-high CD81 cells	0.111
CC(C)(C)OC(=O)N1CCC(Oc2ccc(-c3c(Cl)cc(Nc4n[nH]c(N)n4)cc3C(F)(F)F)cc2)CC1	Pseudotyped HCV GT1b particles (HCVpp), entry into Huh7-high CD81 cells	0.162
CS(=O)(=O)c1cccc(-c2c(Cl)cc(Nc3n[nH]c(N)n3)cc2Cl)c1	Pseudotyped HCV GT1b particles (HCVpp), entry into Huh7-high CD81 cells	0.069
CN(C)S(=O)(=O)c1cccc(-c2c(Cl)cc(Nc3n[nH]c(N)n3)cc2C(F)(F)F)c1	Pseudotyped HCV GT1b particles (HCVpp), entry into Huh7-high CD81 cells	0.268
CC1(NS(=O)(=O)c2ccc(-c3c(Cl)cc(Nc4n[nH]c(N)n4)cc3C(F)(F)F)cc2)COC1	Pseudotyped HCV GT1b particles (HCVpp), entry into Huh7-high CD81 cells	0.014
NC(=O)c1cccc(-c2c(Cl)cc(Nc3n[nH]c(N)n3)cc2Cl)c1	Pseudotyped HCV GT1b particles (HCVpp), entry into Huh7-high CD81 cells	0.539
COc1ccc(-c2c(Cl)cc(Nc3n[nH]c(N)n3)cc2C(F)(F)F)cc1S(=O)(=O)NC1CCOCC1	Pseudotyped HCV GT1b particles (HCVpp), entry into Huh7-high CD81 cells	0.011
Nc1nc(Nc2cc(Cl)c(-c3ccc(S(=O)(=O)N4CC(F)C4)cc3)c(C(F)(F)F)c2)n[nH]1	Pseudotyped HCV GT1b particles (HCVpp), entry into Huh7-high CD81 cells	0.051
Cc1ccc(-c2c(Cl)cc(Nc3n[nH]c(N)n3)cc2C(F)(F)F)cc1S(=O)(=O)NC(C)(C)C	Pseudotyped HCV GT1b particles (HCVpp), entry into Huh7-high CD81 cells	0.032
CC(C)(C)OC(=O)N1CCC(Oc2cccc(-c3c(Cl)cc(Nc4n[nH]c(N)n4)cc3C(F)(F)F)c2)CC1	Pseudotyped HCV GT1b particles (HCVpp), entry into Huh7-high CD81 cells	0.039

Provide each entry's EC50 from the list below.
1. Nc1nc(Nc2cc(Cl)c(-c3ccc(S(=O)(=O)C4CCNCC4)cc3)c(C(F)(F)F)c2)n[nH]1 [Compound 20, hydrochloride]
2. Nc1nc(Nc2ccc(-c3ccc(NC(=O)CCCC[C@@H]4SC[C@@H]5NC(=O)N[C@@H]54)cc3)cc2)n[nH]1 (stereo in doubt)

A)
[0.053, 10]

Could I get EC50 for every one of these entries?
1. Nc1nc(Nc2cc(Cl)c(-c3ccccc3F)c(Cl)c2)n[nH]1
2. C[C@H](NS(C)(=O)=O)c1ccc(-c2c(Cl)cc(Nc3n[nH]c(N)n3)cc2C(F)(F)F)cc1
3. CS(=O)(=O)c1ccc(-c2ccc(Nc3n[nH]c(N)n3)cc2C(F)(F)F)cc1
4. COc1ccc(-c2c(Cl)cc(Nc3n[nH]c(N)n3)cc2C(F)(F)F)cc1S(=O)(=O)NC(C)(C)C
5. Nc1nc(Nc2cc(Cl)c(-c3ccc(S(=O)(=O)CC4CC4)cc3)c(C(F)(F)F)c2)n[nH]1
6. CC(C)(C)N1CC(OC(=O)Nc2ccc(-c3c(Cl)cc(Nc4n[nH]c(N)n4)cc3C(F)(F)F)cc2)C1
7. CS(=O)(=O)n1ccc2cc(-c3c(Cl)cc(Nc4n[nH]c(N)n4)cc3Cl)ccc21

A)
1: 0.366; 2: 0.027; 3: 0.875; 4: 0.004; 5: 0.023; 6: 0.045; 7: 0.212

* * *

system: Pseudotyped HCV GT1b particles (HCVpp), entry into Huh7-high CD81 cells; experiment: microbe, parasite or virus in culture; format: cell-based, HCV GT1b Con1 strain; conditions: Hepatitis C virus, GT1B, 72 h, read-out: HCVpp GT-1b (EC50, μM)
Rule: EC50 below 0.04 µM gives Met, anything at or above gives Not met.

The following molecules have reported results that may help.
Compound String	Label Value
Nc1nc(Nc2cc(Cl)c(-c3ccc(S(=O)(=O)N4CC5(COC5)C4)cc3)c(C(F)(F)F)c2)n[nH]1	Met
Nc1nc(Nc2ccc(-c3ccccc3Cl)c(C(F)(F)F)c2)n[nH]1	Not met
COC(=O)c1ccc(-c2c(Cl)cc(Nc3n[nH]c(N)n3)cc2Cl)cc1	Not met
CC(C)(C)N(CC(F)(F)F)S(=O)(=O)c1ccc(-c2c(Cl)cc(Nc3n[nH]c(N)n3)cc2C(F)(F)F)cc1	Met

With those in mind, consider the next molecule.
Q) Regarding CS(=O)(=O)c1ccc(-c2c(Cl)cc(Nc3n[nH]c(N)n3)cc2Cl)cc1 , kindly confirm whether its EC50 is beneath 0.04 µM.
A) Not met

* * *

tested on: Pseudotyped HCV GT1b particles (HCVpp), entry into Huh7-high CD81 cells; experiment: microbe, parasite or virus in culture; type: cell-based, HCV GT1b Con1 strain; conditions: Hepatitis C virus, GT1B, 72 h, read-out: HCVpp GT-1b (EC50, μM)
Assay Readout: EC50 (µM)
One number for each entry, in µM.

Examples from the recorded data:
Compound String	U	Test Result
Nc1nc(Nc2ccc(-c3ccccc3)c(C(F)(F)F)c2)n[nH]1	µM	0.581
CS(=O)(=O)NCc1cccc(-c2c(Cl)cc(Nc3n[nH]c(N)n3)cc2C(F)(F)F)c1	µM	0.196

Hi, could you look up EC50 for each item in my list?
1. Nc1nc(Nc2cc(Cl)c(-c3ccc(S(=O)(=O)N4CCOCC4)cc3)c(C(F)(F)F)c2)n[nH]1
2. CC(C)(C)CCN(CCOc1ccc(-c2c(Cl)cc(Nc3n[nH]c(N)n3)cc2C(F)(F)F)cc1)CCC(C)(C)C
3. Nc1nc(Nc2cc(Cl)c(-c3cccc(Cl)c3Cl)c(Cl)c2)n[nH]1
4. Nc1nc(Nc2ccc(-c3c(Cl)cccc3Cl)cc2)n[nH]1
5. CN(C)S(=O)(=O)c1ccc(-c2c(Cl)cc(Nc3n[nH]c(N)n3)cc2Cl)cc1
6. Nc1nc(Nc2cc(Cl)c(-c3ccc(S(=O)(=O)N4CC(O)C4)cc3)c(C(F)(F)F)c2)n[nH]1

A)
0.096
0.062
0.74
20.2
0.042
0.069

The measurements presented in this section are drawn from patent US9693997B2.
